- TARGET OR SYSTEM: Bcl-2, BCl-xL and Bcl-w
- EXPERIMENT: solution competition on Biacore
pIC50: −log10 of the molar value.
QUANTITY MEASURED: pIC50

Data point: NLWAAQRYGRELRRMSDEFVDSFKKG [Bad (103-128) BH3 peptide, human] ; pIC50 = 7.52 to 8.28

Origin of measurements: patent US20080027145A1
